Exercise: state measured pIC50 for each of the compounds provided.
# target.desc: Human recombinant PDE10A2 (Homo sapiens (Human), UniProt Q9Y233)
# Sequence (Q9Y233 267-1055): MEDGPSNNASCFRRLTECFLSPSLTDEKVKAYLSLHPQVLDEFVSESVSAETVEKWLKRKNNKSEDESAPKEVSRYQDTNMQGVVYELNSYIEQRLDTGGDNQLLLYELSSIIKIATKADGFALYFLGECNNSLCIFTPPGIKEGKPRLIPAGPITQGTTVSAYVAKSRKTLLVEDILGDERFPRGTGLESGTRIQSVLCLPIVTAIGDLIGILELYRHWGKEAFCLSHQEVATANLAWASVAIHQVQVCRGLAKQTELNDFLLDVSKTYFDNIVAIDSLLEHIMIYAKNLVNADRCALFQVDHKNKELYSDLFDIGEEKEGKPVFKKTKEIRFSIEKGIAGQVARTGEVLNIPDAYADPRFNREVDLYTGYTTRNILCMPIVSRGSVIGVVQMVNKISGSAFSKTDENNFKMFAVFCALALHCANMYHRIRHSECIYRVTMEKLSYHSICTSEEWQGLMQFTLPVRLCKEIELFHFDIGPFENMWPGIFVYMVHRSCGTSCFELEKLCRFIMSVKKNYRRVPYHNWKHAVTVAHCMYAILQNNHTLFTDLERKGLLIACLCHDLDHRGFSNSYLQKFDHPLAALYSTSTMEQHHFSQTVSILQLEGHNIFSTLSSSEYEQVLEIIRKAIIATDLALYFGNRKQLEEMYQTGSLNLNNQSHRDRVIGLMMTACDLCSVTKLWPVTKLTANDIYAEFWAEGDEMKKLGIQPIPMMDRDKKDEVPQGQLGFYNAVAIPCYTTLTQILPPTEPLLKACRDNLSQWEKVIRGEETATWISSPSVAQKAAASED
# protocol.details: In vitro hPDE10a (human recombinant PDE10A2, scintillation proximity assay)
# run.parameters: human recombinant PDE10A2, 60 nM cAMP, 60 min at room temperature; read-out: hPDE10a2 IC50
Counter-ions that a name gives are not always drawn.
Answers are plain numbers, as −log10 of the molar value.

Would you mind giving pIC50 for every compound in the list below?
1. NS(=O)(=O)c1ccc(-c2cnc(N3CCOCC3)c3nc(COc4ccc5ccccc5n4)cn23)cn1 [Cpd 86, trifluoroacetic acid salt]
2. c1ccc2nc(OCc3cn4c(-c5ccc(N6CCNCC6)nc5)cnc(-c5ccc6nc[nH]c6c5)c4n3)ccc2c1 [Cpd 119, trifluoroacetic acid salt]
3. O=C(O)CNc1ccc(-c2cnc(N3CCOCC3)c3nc(COc4ccc5ccccc5n4)cn23)cn1 [Cpd 107, trifluoroacetic acid salt]

7.85
7.27
8.70

* * *

Exercise: state measured pIC50 for each of the compounds provided.
# target.desc: Rat recombinant PDE10a (rPDE10a) (Rattus norvegicus (Rat), UniProt Q9QYJ6)
# Sequence (Q9QYJ6 whole entry): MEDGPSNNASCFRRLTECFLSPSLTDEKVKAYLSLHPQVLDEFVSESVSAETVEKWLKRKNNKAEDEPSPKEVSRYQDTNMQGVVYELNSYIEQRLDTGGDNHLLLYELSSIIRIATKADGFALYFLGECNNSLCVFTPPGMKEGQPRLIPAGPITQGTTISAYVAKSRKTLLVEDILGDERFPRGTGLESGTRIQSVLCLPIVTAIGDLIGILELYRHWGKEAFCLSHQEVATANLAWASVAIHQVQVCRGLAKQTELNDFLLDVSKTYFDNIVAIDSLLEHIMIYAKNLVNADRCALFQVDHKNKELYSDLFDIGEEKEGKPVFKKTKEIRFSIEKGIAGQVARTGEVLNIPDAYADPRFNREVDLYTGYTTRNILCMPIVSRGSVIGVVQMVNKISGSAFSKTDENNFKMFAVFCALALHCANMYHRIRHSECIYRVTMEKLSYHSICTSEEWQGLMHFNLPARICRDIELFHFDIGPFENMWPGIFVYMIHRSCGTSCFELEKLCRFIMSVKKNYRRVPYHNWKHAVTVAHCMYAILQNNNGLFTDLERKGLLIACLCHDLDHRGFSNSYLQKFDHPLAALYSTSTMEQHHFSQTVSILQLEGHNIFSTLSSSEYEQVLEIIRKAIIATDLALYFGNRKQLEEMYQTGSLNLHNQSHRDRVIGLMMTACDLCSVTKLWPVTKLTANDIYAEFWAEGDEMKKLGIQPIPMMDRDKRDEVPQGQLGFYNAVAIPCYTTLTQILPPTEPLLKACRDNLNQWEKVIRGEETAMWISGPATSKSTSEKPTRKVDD
# protocol.details: In vitro assay PDE10a (rat recombinant PDE10a, SPA)
# run.parameters: 60 nM cAMP, 60 min at rt, read-out: rPDE10a2 IC50
Where a name gives a salt, the structure may show the parent alone.
Answers are plain numbers, as −log10 of the molar value.

Here's what some known entries look like.
>  <compound>
Cn1nc(-c2ccc(-c3cnc(N4CCOCC4)c4nc(/C=C/c5ccc6ccccc6n5)cn34)cc2)[nH]c1=O [Cpd 47]

>  <target.desc>
Rat recombinant PDE10a (rPDE10a) (Rattus norvegicus (Rat), UniProt Q9QYJ6)

>  <experimental.value>
7.82

$$$$
>  <compound>
C(=C\c1cn2c(-c3cnc4nc[nH]c4c3)cnc(N3CCOCC3)c2n1)/c1ccc2ccccc2n1 [Cpd 93]

>  <target.desc>
Rat recombinant PDE10a (rPDE10a) (Rattus norvegicus (Rat), UniProt Q9QYJ6)

>  <experimental.value>
8.00

$$$$
>  <compound>
CN1C(=O)N(C)S(=O)(=O)c2cc(-c3cnc(N4CCOCC4)c4nc(/C=C/c5ccc6ccccc6n5)cn34)ccc21 [Cpd 20]

>  <target.desc>
Rat recombinant PDE10a (rPDE10a) (Rattus norvegicus (Rat), UniProt Q9QYJ6)

>  <experimental.value>
7.59

$$$$
>  <compound>
O=C(O)CNc1ccc(-c2cnc(N3CCOCC3)c3nc(COc4ccc5ccccc5n4)cn23)cn1 [Cpd 107, trifluoroacetic acid salt]

>  <target.desc>
Rat recombinant PDE10a (rPDE10a) (Rattus norvegicus (Rat), UniProt Q9QYJ6)

>  <experimental.value>
8.70

$$$$
>  <compound>
O=c1[nH]cnn1-c1ccc(-c2cnc(N3CCOCC3)c3nc(CCc4ccc5ccccc5n4)cn23)cc1 [Cpd 21]

>  <target.desc>
Rat recombinant PDE10a (rPDE10a) (Rattus norvegicus (Rat), UniProt Q9QYJ6)

>  <experimental.value>
7.51

$$$$

Would you mind giving pIC50 for every compound in the list below?
1. O=C(Nc1cn2c(-c3ccc(N4CCNCC4)nc3)cnc(N3CCOCC3)c2n1)c1ccc2ccccc2n1 [Cpd 125]
2. c1ccc2nc(OCc3cn4c(-c5ccc(Sc6cnn[nH]6)nc5)cnc(N5CCOCC5)c4n3)ccc2c1 [Cpd 92]

6.47
8.52

* * *

# protocol.details: PDE10a-perfused brain permeability study (plasma and brain concentrations)
# run.parameters: male, Sprague-Dawley, rat, brain
Where a name gives a salt, the structure may show the parent alone.
measurement.type: concentration at 2 h

Here's what some known entries look like.
>  <molecule>
O=c1[nH]c(-c2ccc(-c3cnc(N4CCOCC4)c4nc(/C=C/c5ccc6ccccc6n5)cn34)cn2)no1

>  <concentration at 2 h>
0 ng/g

$$$$
>  <molecule>
O=C(O)C1CCN(c2ccc(-c3cnc(N4CCOCC4)c4nc(/C=C/c5ccc6ccccc6n5)cn34)cc2)CC1 [Cpd 14, trifluoroacetic acid salt]

>  <concentration at 2 h>
35.5 ng/g

$$$$

Would you mind giving concentration at 2 h for every molecule in the list below?
1. C(=C\c1cn2c(-c3ccc(-c4nnc[nH]4)nc3)cnc(N3CCOCC3)c2n1)/c1ccc2ccccc2n1
2. O=c1[nH]nnn1-c1ccc(-c2cnc(N3CCOCC3)c3nc(/C=C/c4ccc5ccccc5n4)cn23)cc1
3. Cc1ccc(-c2cnc(N3CCOCC3)c3nc(COc4ccc5ccccc5n4)cn23)cn1
4. CS(=O)(=O)NC(=O)c1ccc(-c2cnc(N3CCOCC3)c3nc(COc4ccc5ccccc5n4)cn23)cn1
5. NS(=O)(=O)N1CCC(c2cnc(N3CCOCC3)c3nc(COc4ccc5ccccc5n4)cn23)CC1 [Cpd 109, trifluoroacetic acid salt]

112 ng/g
0 ng/g
1.85 ng/g
0 ng/g
8.15 ng/g

* * *

# target.desc: Human recombinant PDE10A2 (Homo sapiens (Human), UniProt Q9Y233)
# protocol.details: In vitro hPDE10a (human recombinant PDE10A2, scintillation proximity assay)
# run.parameters: human recombinant PDE10A2, 60 nM cAMP, 60 min at room temperature; read-out: hPDE10a2 IC50
Where a name gives a salt, the structure may show the parent alone.
Exercise: state measured IC50 for each of the molecules provided.

Here's what some known entries look like.
>  <molecule>
c1ccc2nc(OCc3cn4c(-c5ccc(N6CCNCC6)nc5)cnc(N5CCOCC5)c4n3)ncc2c1 [Cpd 124, trifluoroacetic acid salt]

>  <IC50>
115 nM

$$$$
>  <molecule>
CS(=O)(=O)NC(=O)c1cncc(-c2cnc(N3CCOCC3)c3nc(/C=C/c4ccc5ccccc5n4)cn23)c1 [Cpd 25]

>  <IC50>
2 nM

$$$$
>  <molecule>
c1ccc2nc(C3CN(c4cn5c(-c6ccc(N7CCNCC7)nc6)cnc(N6CCOCC6)c5n4)C3)ccc2c1 [Cpd 114, trifluoroacetic acid salt]

>  <IC50>
1350 nM

$$$$
>  <molecule>
O=C(O)[C@@H]1CCCN1C(=O)c1ccc(-c2cnc(N3CCOCC3)c3nc(CCc4ccc5ccccc5n4)cn23)cc1 [Cpd 35, trifluoroacetic acid salt]

>  <IC50>
7 nM

$$$$
>  <molecule>
c1ccc2nc(N3CC(c4cn5c(-c6ccc(N7CCNCC7)nc6)cnc(N6CCOCC6)c5n4)C3)ccc2c1 [Cpd 99]

>  <IC50>
224 nM

$$$$
>  <molecule>
O=c1[nH]c2ccc(-c3cnc(N4CCOCC4)c4nc(CCc5ccc6ccccc6n5)cn34)cc2o1 [Cpd 64, trifluoroacetic acid salt]

>  <IC50>
13 nM

$$$$
>  <molecule>
O=C(O)CNc1ccc(-c2cnc(N3CCOCC3)c3nc(/C=C/c4ccc5ccccc5n4)cn23)cc1 [Cpd 29, trifluoroacetic acid salt]

>  <IC50>
24 nM

$$$$
>  <molecule>
O=C(O)C1CCN(c2ccc(-c3cnc(N4CCOCC4)c4nc(/C=C/c5ccc6ccccc6n5)cn34)cc2)CC1 [Cpd 14, trifluoroacetic acid salt]

>  <IC50>
6 nM

$$$$
>  <molecule>
COC1CCN(c2ncc(-c3ccc(N4CCNCC4)nc3)n3cc(COc4ccc5ccccc5n4)nc23)CC1 [Cpd 112, trifluoroacetic acid salt]

>  <IC50>
89 nM

$$$$

// switching to the query molecule
Entry O=C1NC(=O)C(c2ccc(-c3cnc(N4CCOCC4)c4nc(CCc5ccc6ccccc6n5)cn34)cc2)O1 (stereo not shown) [Cpd 26, trifluoroacetic acid salt] needs its IC50 filled in; supply it.
6 nM

* * *

# protocol.details: PDE10a-perfused brain permeability study (plasma and brain concentrations)
# run.parameters: male, Sprague-Dawley, rat, brain/plasma
Where a name gives a salt, the structure may show the parent alone.
Exercise: state measured Kp at 2 h for each of the compounds provided.
Answers are plain numbers.

Here's what some known entries look like.
>  <compound>
CS(=O)(=O)NC(=O)c1ccc(-c2cnc(N3CCOCC3)c3nc(COc4ccc5ccccc5n4)cn23)cn1

>  <Kp at 2 h>
0

$$$$
>  <compound>
c1ccc2nc(OCc3cn4c(-c5cnc(N6CCNCC6)nc5)cnc(N5CCOCC5)c4n3)ccc2c1

>  <Kp at 2 h>
1.55

$$$$
>  <compound>
O=c1[nH]nnn1-c1ccc(-c2cnc(N3CCOCC3)c3nc(/C=C/c4ccc5ccccc5n4)cn23)cc1

>  <Kp at 2 h>
0

$$$$
>  <compound>
O=C(O)CNc1ccc(-c2cnc(N3CCOCC3)c3nc(COc4ccc5ccccc5n4)cn23)cn1 [Cpd 107, trifluoroacetic acid salt]

>  <Kp at 2 h>
0

$$$$

Would you mind giving Kp at 2 h for every compound in the list below?
1. CC(=O)NS(=O)(=O)c1ccc(-c2cnc(N3CCOCC3)c3nc(CCc4ccc5ccccc5n4)cn23)cc1
2. c1ccc2nc(OCc3cn4c(-c5ccc(Sc6cnn[nH]6)nc5)cnc(N5CCOCC5)c4n3)ccc2c1
3. C(=C\c1cn2c(-c3cnc4nc[nH]c4c3)cnc(N3CCOCC3)c2n1)/c1ccc2ccccc2n1
4. NS(=O)(=O)N1CCC(c2cnc(N3CCOCC3)c3nc(COc4ccc5ccccc5n4)cn23)CC1 [Cpd 109, trifluoroacetic acid salt]
5. O=C(O)C1CCN(c2ccc(-c3cnc(N4CCOCC4)c4nc(/C=C/c5ccc6ccccc6n5)cn34)cc2)CC1 [Cpd 14, trifluoroacetic acid salt]
6. O=C(O)c1ccc(-c2cnc(N3CCOCC3)c3nc(/C=C/c4ccc5ccccc5n4)cn23)cc1 [Cpd 16, trifluoroacetic acid salt]

1. 0
2. 0.77
3. 0
4. 0.03
5. 0.07
6. 0

Would you mind giving Kp at 2 h for every compound in the list below?
1. c1cncc(-c2cnc(N3CCOCC3)c3nc(COc4ccc5ccccc5n4)cn23)c1
2. O=C(O)CN1CCC(c2cnc(N3CCOCC3)c3nc(COc4ccc5ccccc5n4)cn23)CC1 [Cpd 110, trifluoroacetic acid salt]
3. c1ccc2nc(OCc3cn4c(-c5ccc(N6CCNCC6)nc5)cnc(-c5ccc6nc[nH]c6c5)c4n3)ccc2c1 [Cpd 119, trifluoroacetic acid salt]
4. c1ccc2nc(OCc3cn4c(-c5ccc(N6CCNCC6)nc5)cnc(N5CCOCC5)c4n3)ccc2c1
5. c1ccc2nc(OCc3cn4c(-c5ccc(N6CCOCC6)nc5)cnc(N5CCOCC5)c4n3)ccc2c1

[2.07, 0, 2.99, 2.26, 2.04]

Would you mind giving Kp at 2 h for every compound in the list below?
1. O=c1[nH]c(-c2ccc(-c3cnc(N4CCOCC4)c4nc(/C=C/c5ccc6ccccc6n5)cn34)cn2)no1
2. O=C(Nc1cn2c(-c3ccc(N4CCNCC4)nc3)cnc(N3CCOCC3)c2n1)c1ccc2ccccc2n1
3. CC(=O)NS(=O)(=O)c1ccc(-c2cnc(N3CCOCC3)c3nc(/C=C/c4ccc5ccccc5n4)cn23)cc1 [Cpd 69, trifluoroacetic acid salt]
4. C(=C\c1cn2c(-c3ccc(-c4nnc[nH]4)nc3)cnc(N3CCOCC3)c2n1)/c1ccc2ccccc2n1

0
1.2
1
0.55
